The following compounds were reported with Ki values on Coagulation factor XI (Homo sapiens) in different studies.

COC(=O)Nc1ccc2c(c1)NC(=O)CC/C=C/CC(C(=O)NCCc1cc(Cl)ccc1-n1cnnn1)NC2=O (single isomer, unassigned)	< 5 nM

# input Return Ki measured with Coagulation factor XI (Homo sapiens) given this compound: COC(=O)Nc1ccc2c(c1)NC(=O)CC/C=C/C[C@H](NC(=O)/C=C/c1c(C(F)(F)F)ccc(Cl)c1F)c1nc-2c(Cl)[nH]1
# output < 5 nM

# input How about this compound: COC(=O)Nc1ccc2c(c1)NC(=O)CCCCC(c1ccc(-c3c(F)ccc(Cl)c3F)cn1)c1cc(F)cc-2c1 (stereo not drawn)
# output > 875 nM
